B1: CPEB3 Ribozyme (parent)
chain: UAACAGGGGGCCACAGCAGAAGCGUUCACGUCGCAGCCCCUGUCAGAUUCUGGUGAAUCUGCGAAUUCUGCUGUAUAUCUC

Variants of: B1
assay.comment: self-cleavage, relative activity (ratio to wild type); higher = more cleavage; in vitro, sequencing
recorded.metric: self-cleavage
Could you respond with only the numeric value?

Q) Fill in the blank: the reported self-cleavage of A20C U78C is ____.
A) 0.4

Q) Fill in the blank: the reported self-cleavage of C23A U80A is ____.
A) 0.23

Q) Fill in the blank: the reported self-cleavage of G53A is ____.
A) 1.13

Q) Fill in the blank: the reported self-cleavage of A13U C39A is ____.
A) 0.15

Q) Fill in the blank: the reported self-cleavage of G33A U80G is ____.
A) 0.14

Q) Fill in the blank: the reported self-cleavage of A45U U60A is ____.
A) 1.09

Q) Fill in the blank: the reported self-cleavage of U60C C62U is ____.
A) 0.33
